Target: Pa MurB (Pseudomonas aeruginosa)
Sequence (Q9HZM7 whole entry): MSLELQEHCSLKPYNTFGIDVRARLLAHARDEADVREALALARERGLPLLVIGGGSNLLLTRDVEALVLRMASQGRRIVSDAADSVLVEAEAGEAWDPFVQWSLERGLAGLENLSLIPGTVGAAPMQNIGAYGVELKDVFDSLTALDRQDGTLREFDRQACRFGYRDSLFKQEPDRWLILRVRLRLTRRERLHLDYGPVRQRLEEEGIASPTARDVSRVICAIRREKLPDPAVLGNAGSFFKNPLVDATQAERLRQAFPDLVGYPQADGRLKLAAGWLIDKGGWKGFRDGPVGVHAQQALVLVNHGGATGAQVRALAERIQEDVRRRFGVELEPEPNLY
Assay: Isothermal titration calorimetry
Assay type: binding
Details: Table 4; LE = −(RTlnKd)/(number of heavy atoms)
measuredProperty: LE
Write down the value, and be sure its unit follows.

Which LE value is on record for O=C(O)c1cnn(-c2ccccc2Cl)c1C(F)(F)F [Fragment 30] ?
0.27 kcal/mol per heavy atom

Which LE value is on record for Cc1cccc(C)c1-n1ncc(C(=O)O)c1C(F)(F)F [Fragment 41] ?
0.31 kcal/mol per heavy atom

Which LE value is on record for O=C(O)c1cnn(-c2ccccc2Br)c1C(F)(F)F [Fragment 31] ?
0.29 kcal/mol per heavy atom
